Attribution: patent US7084145B2

target: human V1A receptor (Homo sapiens, UniProt P37288)
Sequence (P37288 whole entry): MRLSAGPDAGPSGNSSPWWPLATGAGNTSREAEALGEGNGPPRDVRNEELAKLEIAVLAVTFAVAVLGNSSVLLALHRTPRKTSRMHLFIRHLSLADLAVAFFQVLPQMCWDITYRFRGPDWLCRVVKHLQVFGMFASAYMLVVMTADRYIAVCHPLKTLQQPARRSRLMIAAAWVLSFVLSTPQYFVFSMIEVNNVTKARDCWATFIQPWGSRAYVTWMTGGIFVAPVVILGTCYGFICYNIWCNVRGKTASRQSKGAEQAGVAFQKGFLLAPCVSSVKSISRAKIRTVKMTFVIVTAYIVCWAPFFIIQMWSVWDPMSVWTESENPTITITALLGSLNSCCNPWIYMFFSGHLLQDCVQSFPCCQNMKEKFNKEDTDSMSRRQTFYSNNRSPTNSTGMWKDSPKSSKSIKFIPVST
metric: pKi
One number for each entry, as −log10 of the molar value.

Request the reported pKi associated with "COC1CCN(Cc2nnc(C3CCN(c4ccccn4)CC3)n2Cc2ccccc2)CC1" 8.35
